Test system: Mycobacteroides chelonae
Assay: Antimicrobial activity against Mycobacterium chelonae after 3 to 5 days by broth microdilution method
Assay type: functional
Measure name: MIC50 (µg/mL)

Sample records with MIC50:
Compound: NC[C@H]1O[C@H](O[C@H]2C(O)[C@@H](O[C@H]3O[C@H](CO)[C@@H](O)[C@H](N)[C@H]3O)[C@H](N)C[C@@H]2N)[C@H](N)C[C@@H]1O (single isomer, unassigned)
Value units: µg/mL
MIC50: 16
--
Compound: NC[C@H]1O[C@H](O[C@H]2[C@H](O)[C@@H](O[C@H]3O[C@H](CO)[C@@H](O)[C@H](N)[C@H]3O)[C@H](N)C[C@@H]2N)[C@H](O)[C@@H](O)[C@@H]1O
Value units: µg/mL
MIC50: 4

I. NCC[C@H](O)C(=O)N[C@@H]1C[C@H](N)[C@@H](O[C@H]2O[C@H](CN)[C@@H](O)[C@H](O)[C@H]2O)[C@H](O)[C@H]1O[C@H]1O[C@H](CO)[C@@H](O)[C@H](N)[C@H]1O
II. CN[C@@H]1[C@@H](O)[C@@H](O[C@@H]2[C@@H](O)[C@H](O[C@H]3O[C@H](CN)[C@@H](O)[C@H](O)[C@H]3O)[C@@H](N)C[C@H]2NC(=O)[C@@H](O)CN)OC[C@]1(C)O
III. CN[C@@H]1[C@H](O[C@H]2[C@H](O[C@H]3[C@H](O)[C@@H](O)[C@H](N=C(N)N)[C@@H](O)[C@@H]3N=C(N)N)O[C@@H](C)[C@]2(O)C=O)O[C@@H](CO)[C@H](O)[C@H]1O (stereo in doubt)
Output the entries ranked by MIC50 from maximum down to minimum. The labels, placed in the requested order, form the answer.
III, I, II
(III: 64 µg/mL, I: 8 µg/mL, II: 4 µg/mL)
